# credit: ChEMBL document CHEMBL5338710

experiment.summary: Antiproliferative activity against human PBMC cells assessed as reduction in cell viability measured after 48 hrs by MTT assay
Format: toxicity, cell-based

{"molecule": "C=C(C)[C@@H]1CC[C@@](C)(O)[C@H]1CC1=C(O)C(CC=C(C)C)(CC=C(C)C)C(=O)C(C(=O)C(C)CC)=C1O (stereo partly specified)", "comparison.symbol": "=", "IC50 at 48 h, µM": 10}
{"molecule": "C=C(C)[C@H]1CC[C@@](C)(O)[C@@H](C2=C(O)C(CC=C(C)C)(CC=C(C)C)C(=O)C(C(=O)c3ccccc3)=C2O)C1", "comparison.symbol": "=", "IC50 at 48 h, µM": 24}
{"molecule": "C=C(C)[C@H]1CC[C@@](C)(O)[C@@H](C2=C(O)[C@@](C)(CC=C(C)C)C(=O)C(C(=O)C(C)C)=C2O)C1", "comparison.symbol": ">", "IC50 at 48 h, µM": 100}
{"molecule": "C=C(C)[C@H]1CC[C@@](C)(O)[C@@H](C2=C(O)[C@@](C)(CC=C(C)C)C(=O)C(C(=O)C(C)CC)=C2O)C1 (stereo partly specified)", "comparison.symbol": "=", "IC50 at 48 h, µM": 19.6}
{"molecule": "C=C(C)[C@@H]1CC[C@@](C)(O)[C@H]1CC1=C(O)C(C)(CC=C(C)C)C(=O)C(C(=O)C(C)CC)=C1O (stereo partly specified)", "comparison.symbol": ">", "IC50 at 48 h, µM": 100}
{"molecule": "C=C(C)[C@H]1CC[C@@](C)(O)[C@@H](C2=C(O)[C@](C)(CC=C(C)C)C(=O)C(C(=O)C(C)C)=C2O)C1", "comparison.symbol": "=", "IC50 at 48 h, µM": 14.4}

* * *

System: SW480
experiment.summary: Antiproliferative activity against human SW480 cells assessed as reduction in cell viability measured after 48 hrs by MTT assay
Assay type: functional, cell-based
cond: SW480, 48 h
pIC50: −log10 of the molar value.

{"given.smiles": "C=C(C)[C@H]1CC[C@@](C)(O)[C@@H](C2=C(O)[C@@](C)(CC=C(C)C)C(=O)C(C(=O)C(C)C)=C2O)C1", "assayed.system": "SW480", "pIC50": 4.65}
